Details: in ethyl acetate, 327.65 K
experimentalReadout: solubility (mole fraction)

{"lineNotation": "C[C@@H]1CC[C@@]2(OC1)O[C@H]1C[C@H]3[C@@H]4CC=C5C[C@@H](O)CC[C@]5(C)[C@H]4CC[C@]3(C)[C@H]1[C@@H]2C", "experimentalReadout": "solubility (mole fraction)", "reported": 0.0065}

###

Settings: in n-propyl acetate, 322.15 K
experimentalReadout: solubility (mole fraction)

{"lineNotation": "C[C@@H]1CC[C@@]2(OC1)O[C@H]1C[C@H]3[C@@H]4CC=C5C[C@@H](O)CC[C@]5(C)[C@H]4CC[C@]3(C)[C@H]1[C@@H]2C", "reported": 0.00495}

###

Details: in ethyl acetate, 303.15 K
experimentalReadout: solubility (mole fraction)

{"lineNotation": "C[C@@H]1CC[C@@]2(OC1)O[C@H]1C[C@H]3[C@@H]4CC=C5C[C@@H](O)CC[C@]5(C)[C@H]4CC[C@]3(C)[C@H]1[C@@H]2C", "experimentalReadout": "solubility (mole fraction)", "reported": 0.00276}

###

Settings: in isopropanol, 319.15 K

{"lineNotation": "C[C@@H]1CC[C@@]2(OC1)O[C@H]1C[C@H]3[C@@H]4CC=C5C[C@@H](O)CC[C@]5(C)[C@H]4CC[C@]3(C)[C@H]1[C@@H]2C", "solubility (mole fraction)": 0.00203}

###

Conditions: in ethanol, 329.65 K

{"lineNotation": "C[C@@H]1CC[C@@]2(OC1)O[C@H]1C[C@H]3[C@@H]4CC=C5C[C@@H](O)CC[C@]5(C)[C@H]4CC[C@]3(C)[C@H]1[C@@H]2C", "solubility (mole fraction)": 0.00258}

###

Conditions: in ethanol, 328.65 K

{"lineNotation": "C[C@@H]1CC[C@@]2(OC1)O[C@H]1C[C@H]3[C@@H]4CC=C5C[C@@H](O)CC[C@]5(C)[C@H]4CC[C@]3(C)[C@H]1[C@@H]2C", "solubility (mole fraction)": 0.00249}

###

Details: in ethyl acetate, 305.15 K

{"lineNotation": "C[C@@H]1CC[C@@]2(OC1)O[C@H]1C[C@H]3[C@@H]4CC=C5C[C@@H](O)CC[C@]5(C)[C@H]4CC[C@]3(C)[C@H]1[C@@H]2C", "solubility (mole fraction)": 0.00317}

###

Conditions: in isopropanol, 300.65 K
experimentalReadout: solubility (mole fraction)

{"lineNotation": "C[C@@H]1CC[C@@]2(OC1)O[C@H]1C[C@H]3[C@@H]4CC=C5C[C@@H](O)CC[C@]5(C)[C@H]4CC[C@]3(C)[C@H]1[C@@H]2C", "reported": 0.00111}

###

Conditions: in acetone, 321.15 K
experimentalReadout: solubility (mole fraction)

{"lineNotation": "C[C@@H]1CC[C@@]2(OC1)O[C@H]1C[C@H]3[C@@H]4CC=C5C[C@@H](O)CC[C@]5(C)[C@H]4CC[C@]3(C)[C@H]1[C@@H]2C", "reported": 0.00217}

###

Settings: in methanol, 298.15 K

{"lineNotation": "C[C@@H]1CC[C@@]2(OC1)O[C@H]1C[C@H]3[C@@H]4CC=C5C[C@@H](O)CC[C@]5(C)[C@H]4CC[C@]3(C)[C@H]1[C@@H]2C", "solubility (mole fraction)": 0.000257}

###

Conditions: in ethanol, 332.65 K

{"lineNotation": "C[C@@H]1CC[C@@]2(OC1)O[C@H]1C[C@H]3[C@@H]4CC=C5C[C@@H](O)CC[C@]5(C)[C@H]4CC[C@]3(C)[C@H]1[C@@H]2C", "solubility (mole fraction)": 0.00284}
